Recorded MIC, one value per entry.
Test system: Candida albicans DSM1386
experiment-summary: MIC evaluation (broth method), C. albicans
Format: cell-based
assay-context: DSM1386, broth method, 48–72 h, read-out: Minimal inhibitory concentration C. albicans
Could you give me the number in mg/L? Just the number is fine.

>>> df
                                   compound  recorded_value
0  Nc1ccc(C(=O)/C=C/c2ccccc2)cc1 [Compound 3, 4′-Aminochalcone]             0.5
1  Nc1cccc(C(=O)/C=C/c2ccc([N+](=O)[O-])cc2)c1 [Compound 11, 3′-Amino-4-nitrochalcone]            0.25
2  Nc1ccccc1C(=O)/C=C/c1ccc(C(=O)O)cc1 [Compound 7, 2′-Amino-4-carboxychalcone]           0.125
3  Nc1ccccc1C(=O)/C=C/c1ccc(OCc2ccccc2)cc1 [Compound 13, 2′-Amino-4-benzyloxychalcone]             0.5
4  Nc1ccccc1C(=O)/C=C/c1ccc([N+](=O)[O-])cc1 [Compound 10, 2′-Amino-4-nitrochalcone]             0.5

Moving on to the next compound.
Entry Nc1cccc(C(=O)/C=C/c2ccccc2)c1 [Compound 2, 3′-Aminochalcone] ; MIC = 0.5

###

Tested on: Staphylococcus aureus DSM799
experiment-summary: Microbial growth curve screening, S. aureus
Assay type: cell-based
assay-context: 0.1% (w/v), OD at 560 nm, control 1.67
Each entry below carries its recorded ∆OD S. aureus.
Would you mind answering with just the numeric figure?

The examples below pair each entry with its known result.
compound	∆OD S. aureus
Nc1ccc(C(=O)/C=C/c2ccc([N+](=O)[O-])cc2)cc1	0.0
Nc1ccccc1C(=O)/C=C/c1ccc([N+](=O)[O-])cc1	0.15

Please find the next compound below.
Sure, the documented ∆OD S. aureus for CN(C)[C@@H]1C(O)=C(C(N)=O)C(=O)[C@@]2(O)C(O)=C3C(=O)c4c(O)cccc4[C@@](C)(O)[C@H]3[C@H](O)[C@@H]12 [Oxytetracycline, reference compound] is 0.0

###

Catalogue of molecules with associated Lag-phase F. linii
System: Fusarium linii KB-F1
experiment-summary: Microbial growth curve screening, F. linii
Type: cell-based
assay-context: 0.1% (w/v), control 13.5 h
Write the answer as a number in h, unit excluded.

Examples with answers:
molecule	Lag-phase F. linii / h
Nc1cccc(C(=O)/C=C/c2ccc(C(=O)O)cc2)c1 [Compound 8, 3′-Amino-4-carboxychalcone]	13.0
COc1cc(/C=C/C(=O)c2ccc(N)cc2)ccc1OCc1ccccc1 [Compound 18, 4′-Amino-4-benzyloxy-3-methoxychalcone]	6.5
Nc1ccccc1C(=O)/C=C/c1ccccc1 [Compound 1, 2′-Aminochalcone]	18.5
Nc1cccc(C(=O)/C=C/c2ccc(OCc3ccccc3)cc2)c1 [Compound 14, 3′-Amino-4-benzyloxychalcone]	6.0

Form field Lag-phase F. linii, entry Nc1ccc(C(=O)/C=C/c2ccc(OCc3ccccc3)cc2)cc1 [Compound 15, 4′-Amino-4-benzyloxychalcone] : 11.5

// Lag-phase F. linii value for C[C@@H]1[C@H](O)[C@@H](C)/C=C/C=C/CC/C=C/C=C/C=C/C=C/C(O[C@H]2O[C@H](C)[C@@H](O)[C@H](N)[C@@H]2O)CC2O[C@](O)(CC(O)C(O)CCC(O)CC(O)CC(O)CC(=O)O[C@H]1C)CC(O)C2C(=O)O (stereo partly shown) [Nystatin, reference compound] : 10.0

// sample Nc1ccc(C(=O)/C=C/c2ccc(C(=O)O)cc2)cc1 [Compound 9, 4′-Amino-4-carboxychalcone] , its Lag-phase F. linii was 13.5

###

System: Fusarium linii KB-F1
experiment-summary: Microbial growth curve screening, F. linii
Format: cell-based
assay-context: 0.1% (w/v), control 13.5 h
measured-property: Lag-phase F. linii (h)
Numbers only; they are read as h.

Below, 5 compounds whose answers are already recorded.
>>> df
                                smiles_data  target_or_test_system  recorded_value
0         CCc1ccc(/C=C/C(=O)c2cccc(N)c2)cc1   Fusarium linii KB-F1             8.0
1  COc1cc(/C=C/C(=O)c2cccc(N)c2)ccc1OCc1ccccc1   Fusarium linii KB-F1            11.0
2       Nc1ccccc1C(=O)/C=C/c1ccc(C(=O)O)cc1   Fusarium linii KB-F1            26.0
3           CCc1ccc(/C=C/C(=O)c2ccccc2N)cc1   Fusarium linii KB-F1             7.5
4         CCc1ccc(/C=C/C(=O)c2ccc(N)cc2)cc1   Fusarium linii KB-F1             9.0

Please look at the following compound next.
In plain terms, Nc1cccc(C(=O)/C=C/c2ccccc2)c1 has a documented Lag-phase F. linii of 30.0

###

Tested on: Staphylococcus aureus DSM799
experiment-summary: Microbial growth curve screening, S. aureus
Format: cell-based
assay-context: 0.1% (w/v), OD at 560 nm, control 1.67
measured-property: ∆OD S. aureus

Example molecules with recorded ∆OD S. aureus:
                                smiles_data  recorded_value
0  Nc1cccc(C(=O)/C=C/c2ccc([N+](=O)[O-])cc2)c1             0.0
1               Nc1ccccc1C(=O)/C=C/c1ccccc1             0.0
2  COc1cc(/C=C/C(=O)c2ccc(N)cc2)ccc1OCc1ccccc1            0.26

Turning to the following molecule.
For record Nc1ccccc1C(=O)/C=C/c1ccc(OCc2ccccc2)cc1 the listed ∆OD S. aureus is 0

###

Reported melting point by item:

# count of solved cases: 3
>>> df
                                smiles_data  measured_property  recorded_value
0       Nc1ccccc1C(=O)/C=C/c1ccc(C(=O)O)cc1      melting point   188 to 191 °C
1  Nc1ccccc1C(=O)/C=C/c1ccc([N+](=O)[O-])cc1      melting point   114 to 117 °C
2           CCc1ccc(/C=C/C(=O)c2ccccc2N)cc1      melting point     34 to 36 °C

# evaluate next
Measured melting point of CCc1ccc(/C=C/C(=O)c2ccc(N)cc2)cc1 : 125 °C

###

Tested on: Fusarium linii KB-F1
experiment-summary: Microbial growth curve screening, F. linii
Type: cell-based
assay-context: 0.1% (w/v), OD at 560 nm, control 1.95
The reader will find reported ∆OD F. linii values listed item by item below.
Field format: numeric only.

Below: 8 compounds and their reported ∆OD F. linii.
compound	target-or-test-system	∆OD F. linii
Nc1cccc(C(=O)/C=C/c2ccccc2)c1	Fusarium linii KB-F1	0.23
CCc1ccc(/C=C/C(=O)c2cccc(N)c2)cc1	Fusarium linii KB-F1	0.80
CCc1ccc(/C=C/C(=O)c2ccc(N)cc2)cc1	Fusarium linii KB-F1	0.40
Nc1cccc(C(=O)/C=C/c2ccc([N+](=O)[O-])cc2)c1	Fusarium linii KB-F1	0.0
Nc1cccc(C(=O)/C=C/c2ccc(C(=O)O)cc2)c1	Fusarium linii KB-F1	0.45
Nc1ccc(C(=O)/C=C/c2ccc(OCc3ccccc3)cc2)cc1	Fusarium linii KB-F1	0.50
Nc1ccccc1C(=O)/C=C/c1ccc([N+](=O)[O-])cc1	Fusarium linii KB-F1	0.0
CCc1ccc(/C=C/C(=O)c2ccccc2N)cc1	Fusarium linii KB-F1	1.04

Lab note: COc1cc(/C=C/C(=O)c2cccc(N)c2)ccc1OCc1ccccc1 gave ∆OD F. linii of 0.24

Sample C[C@@H]1[C@H](O)[C@@H](C)/C=C/C=C/CC/C=C/C=C/C=C/C=C/C(O[C@H]2O[C@H](C)[C@@H](O)[C@H](N)[C@@H]2O)CC2O[C@](O)(CC(O)C(O)CCC(O)CC(O)CC(O)CC(=O)O[C@H]1C)CC(O)C2C(=O)O (some centres unmarked) [Nystatin, reference compound] ; ∆OD F. linii observed: 0.13

The compound listed as Nc1ccc(C(=O)/C=C/c2ccccc2)cc1 shows ∆OD F. linii equal to 0

The compound identified as Nc1ccccc1C(=O)/C=C/c1ccccc1 registered its ∆OD F. linii at 0.73

Lookup result for COc1cc(/C=C/C(=O)c2ccc(N)cc2)ccc1OCc1ccccc1 ; measured ∆OD F. linii: 0.41

Measured ∆OD F. linii, COc1cc(/C=C/C(=O)c2ccccc2N)ccc1OCc1ccccc1 : 0
